Recorded viability at 24 h, 1 µM for the following compounds
assay: Cytotoxicity against LPS-stimulated mouse RAW264.7 cells assessed as cell viability at 1 uM after 24 hrs by MTT assay; assay type: cell-based; conditions: LPS-stimulated RAW264.7 cells, read-out: Activity
Give the value, in units of %, as a plain number.

Solved entries (count: 5):
mol=C[C@H](CCO)CC[C@@]1(C)C2=C(CC[C@@H]1C)C(C)(C)CCC2 quantity_name="viability at 24 h, 1 µM" recorded_value=75
mol=CC1=C(CC[C@H](C)CCO)[C@@]2(C)CCCC(C)(C)[C@@H]2CC1 quantity_name="viability at 24 h, 1 µM" recorded_value=75
mol=CC(=O)OCC[C@@H](C)CC[C@@H]1[C@@]2(C)CCCC(C)(C)[C@@H]2CC[C@@]1(C)O quantity_name="viability at 24 h, 1 µM" recorded_value=90
mol=C[C@@H](CC[C@@H]1[C@@]2(C)CCCC(C)(C)[C@@H]2CC[C@@]1(C)O)CC(=O)O quantity_name="viability at 24 h, 1 µM" recorded_value=80
mol=COC(=O)C[C@@H](C)CC[C@@H]1[C@@]2(C)CCCC(C)(C)[C@@H]2CC[C@@]1(C)O quantity_name="viability at 24 h, 1 µM" recorded_value=95

Consider "C[C@H](CCO)CC[C@@H]1[C@@]2(C)CCCC(C)(C)[C@@H]2CC[C@@]1(C)O" . Its measured viability at 24 h, 1 µM is 40

Consider "C[C@H](CC=O)CC[C@@H]1[C@@]2(C)CCCC(C)(C)[C@@H]2CC[C@@]1(C)O" . Its measured viability at 24 h, 1 µM is 80

Consider "C[C@H](CCOC(=O)c1ccc(Br)cc1)CC[C@@H]1[C@@]2(C)CCCC(C)(C)[C@@H]2CC[C@@]1(C)O" . Its measured viability at 24 h, 1 µM is 80

Consider "CCCCCCCCCCCC(=O)OCC[C@@H](C)CC[C@@H]1[C@@]2(C)CCCC(C)(C)[C@@H]2CC[C@@]1(C)O" . Its measured viability at 24 h, 1 µM is 80

* * *

system: RAW264.7; experiment: Antiinflammatory activity in mouse RAW264.7 cells assessed as inhibition of LPS-induced nitrite production treated 30 mins before LPS challenge measured after 24 hrs by Griess method; assay type: functional, cell-based
quantity name: inhibition

mol=C[C@H](CCO)CC[C@@H]1[C@@]2(C)CCCC(C)(C)[C@@H]2CC[C@@]1(C)O quantity_name=inhibition recorded_value="Dose-dependent effect"
mol=CC1=C(CC[C@H](C)CCO)[C@@]2(C)CCCC(C)(C)[C@@H]2CC1 quantity_name=inhibition recorded_value="Dose-dependent effect"
mol=CC(=O)OCC[C@@H](C)CC[C@@H]1[C@@]2(C)CCCC(C)(C)[C@@H]2CC[C@@]1(C)O quantity_name=inhibition recorded_value="Dose-dependent effect"
mol=C[C@H](CCO)CC[C@@]1(C)C2=C(CC[C@@H]1C)C(C)(C)CCC2 quantity_name=inhibition recorded_value="Dose-dependent effect"

Consider "COC(=O)C[C@@H](C)CC[C@@H]1[C@@]2(C)CCCC(C)(C)[C@@H]2CC[C@@]1(C)O" . Its measured inhibition is Dose-dependent effect
